All values here come from patent US20080234262A1.

system: breast line MDA468; test: In vitro cell culture growth assay (MTS), MDA468; type: cell-based, human; details: Homo sapiens, 72 h, MDA468 cells, three days after drug treatment
property: pIC50
// scale note: pIC50 = -log10(conc_M); give the bare number

>>> reported_value("CNC(=O)Nc1ccc(-c2nc(N3CCOCC3)c3cnn(C4CCN(CC(=O)c5ccccc5)CC4)c3n2)cc1 [Example 333]")
6.70
>>> reported_value("COC(=O)Nc1ccc(-c2nc(N3CCOCC3)c3cnn(C4CCN(C(=O)OC(C)(C)C)CC4)c3n2)cc1 [Compound 772]")
5.26
>>> reported_value("O=C(NCCCc1ccccc1)Nc1ccc(-c2nc(N3CCOCC3)c3cnn(C4CCN(Cc5ccccc5)CC4)c3n2)cc1 [Compound 260]")
4.22

Looking up CNC(=O)Nc1ccc(-c2nc(N3CCOCC3)c3cnn(C4CCN(C(=O)c5ccccc5C)CC4)c3n2)cc1 [Compound 602] , I found its pIC50 recorded as 7.15

---

system: breast line MDA468; assay: In vitro cell culture growth assay (MTS), MDA468; format: cell-based, human; conditions: Homo sapiens, 72 h, MDA468 cells, three days after drug treatment
pIC50: −log10 of the molar value.
Response key: TRUE means pIC50 >= 6; FALSE means pIC50 < 6.

>>> category_label("CCn1nc(C#CCN(C)C)c2c(N3CCOCC3)nc(-c3ccc(NC(=O)NC)cc3)nc21")
"TRUE"
>>> category_label("CNC(=O)Nc1ccc(-c2nc(N3CCOCC3)c3cnn(C4CCN(C(=O)c5cccnc5Cl)CC4)c3n2)cc1")
"TRUE"

Prompt: Please tell me: is the molecule "COC(=O)Nc1ccc(-c2nc(N3CCOCC3)c3cnn(-c4ccccc4)c3n2)cc1" at or over 6 in terms of pIC50?
Completion: FALSE

Prompt: Please tell me: is the molecule CNC(=O)Nc1ccc(-c2nc(N3CCOCC3)c3cnn(C4CCN(C(=O)c5cccc(F)c5)CC4)c3n2)cc1 [Example 357] at or over 6 in terms of pIC50?
Completion: TRUE

Prompt: Please tell me: is the molecule "COC(=O)Nc1ccc(-c2nc(N3CCOCC3)c3cnn(C4CCN(C(=O)C(C)C)CC4)c3n2)cc1" at or over 6 in terms of pIC50?
Completion: FALSE

Prompt: Please tell me: is the molecule "Oc1cccc(-c2nc(N3CCCOCC3)c3cnn(-c4ccccc4)c3n2)c1" at or over 6 in terms of pIC50?
Completion: FALSE

Prompt: Please tell me: is the molecule NC(=O)Nc1ccc(-c2nc(N3CCOCC3)c3cnn(C4CCN(Cc5cccnc5)CC4)c3n2)cc1 [Compound 558] at or over 6 in terms of pIC50?
Completion: TRUE

Prompt: Please tell me: is the molecule "CCCOC(=O)N1CCC(n2ncc3c(N4CCOCC4)nc(-c4ccc(NC(=O)NCC5CC5)cc4)nc32)CC1" at or over 6 in terms of pIC50?
Completion: FALSE

Prompt: Please tell me: is the molecule "Brc1ccc(CN2CCC(n3ncc4c(N5CCOCC5)nc(-c5ccc6[nH]ccc6c5)nc43)CC2)cn1" at or over 6 in terms of pIC50?
Completion: FALSE

Prompt: Please tell me: is the molecule "C=CC(=O)N1CCC(n2ncc3c(N4CCOCC4)nc(-c4ccc(NC(=O)NC)cc4)nc32)CC1" at or over 6 in terms of pIC50?
Completion: TRUE

Prompt: Please tell me: is the molecule NC(=O)Nc1ccc(-c2nc(N3CCOCC3)c3cnn(C4CCN(C(=O)c5cccnc5)CC4)c3n2)cc1 [Example 301] at or over 6 in terms of pIC50?
Completion: FALSE

Prompt: Please tell me: is the molecule CNC(=O)Nc1ccc(-c2nc(N3CCOCC3)c3cnn(C4CCN(Cc5cccnc5)CC4)c3n2)cc1F [Example 350] at or over 6 in terms of pIC50?
Completion: TRUE

Prompt: Please tell me: is the molecule "O=C(Nc1ccc(-c2nc(N3CCOCC3)c3cnn(C4CCN(CC(F)(F)F)CC4)c3n2)cc1)Nc1ccccn1" at or over 6 in terms of pIC50?
Completion: FALSE
